Answer each item with its documented IC50.
Answer in nM, number only, no unit symbol.

Q) Request - read-out IC50 | tested on Mu-type opioid receptor (Mus musculus, UniProt P42866) | compound COC(=O)/C=C/C(=O)N[C@@H]1CC[C@@]2(O)[C@H]3Cc4ccc(O)c5c4[C@@]2(CCN3CC2CC2)[C@H]1O5
A) 82

Q) Tell me reported IC50 for COC(=O)CC(SCC(NC(=O)CCC(N)C(=O)O)C(=O)NCC(=O)O)C(=O)N[C@@H]1CC[C@@]2(O)[C@H]3Cc4ccc(O)c5c4[C@@]2(CCN3CC2CC2)[C@H]1O5 (stereo partly drawn) , tested with Mu-type opioid receptor (Mus musculus, UniProt P42866).
Sequence (P42866 whole entry): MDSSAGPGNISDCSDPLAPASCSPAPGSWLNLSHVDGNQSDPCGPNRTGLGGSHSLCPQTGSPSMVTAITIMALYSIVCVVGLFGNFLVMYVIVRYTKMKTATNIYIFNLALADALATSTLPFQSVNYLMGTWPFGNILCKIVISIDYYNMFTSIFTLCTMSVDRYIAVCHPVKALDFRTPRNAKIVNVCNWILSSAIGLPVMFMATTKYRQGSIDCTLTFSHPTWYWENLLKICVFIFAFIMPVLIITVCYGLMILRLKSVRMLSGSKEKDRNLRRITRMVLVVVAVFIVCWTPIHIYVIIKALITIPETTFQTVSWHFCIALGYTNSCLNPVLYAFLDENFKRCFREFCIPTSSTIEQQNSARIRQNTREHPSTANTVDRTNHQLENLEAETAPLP
A) 280

Q) Provide the documented IC50 with Mu-type opioid receptor (Mus musculus, UniProt P42866) as the system for COC(=O)CC(SCC(N)C(=O)O)C(=O)N[C@@H]1CC[C@@]2(O)[C@H]3Cc4ccc(O)c5c4[C@@]2(CCN3CC2CC2)[C@H]1O5 (stereo partly drawn)
A) 140
